Tested on: FGFR1
Details: concentration: 1 μM, replicates: in singlicate; n = 1;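 note: KINOMEscan kinase panel screen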
// reported %Inh per item
recorded-endpoint: %Inh

>>> print(df.to_string())
                                   compound  result
0  Nc1nc(-c2ccc3c(N)n[nH]c3c2)cc(N2CCCC2)n1 [GSK2227430]      0%
1  NS(=O)(=O)CCc1cccc(Nc2nccc(-c3c(-c4cccc(NC(=O)c5c(F)cccc5F)c4)nn4ccccc34)n2)c1 [GSK336735]     44%
2  COC(=O)Nc1nc2cc(Oc3ccc(NC(=O)Nc4cc(F)ccc4F)cc3)ccc2[nH]1.Cl [GW701424]      0%
3  Cl.Oc1cccc(Nc2ccnc3cc(-c4ccncc4)ccc23)c1 [GW494601]     59%
4  [2H]C([2H])(c1cccc(C(F)(F)F)c1C)n1ccn2c(=O)nc(N3CCOCC3)cc12 [GSK2336394]      7%
5  O=c1cc(N2CCOCC2)nc2n(Cc3cccc(Cl)c3Cl)c(C3CC3)nn12 [GSK2358994]      0%
6  Fc1ccc(-c2ncn(CCCN3CCOCC3)c2-c2cccnc2)cc1 [SB-211743]      0%
7  COc1ccc(Nc2ncc(C#N)c(Nc3ccccc3C(N)=O)n2)cc1N1CCN(C)CC1.Cl [GSK1558669]    100%

* * *

Test system: BRK
Construct: gene PTK6
Settings: concentration: 1 μM, replicates: in singlicate; n = 1
Category key, based on recorded %Inh: c1 (below 4%), c2 (4% to below 10%), c3 (10% or more)

                                    compound  label_class
 0  O=C(NCCNc1ccnc(Nc2ccc(F)cc2)n1)Nc1ccccc1F           c2
 1  COc1cc2ncn(-c3cc(OCc4sccc4Cl)c(C(N)=O)s3)c2cc1OC           c3
 2                CCCCCc1nc2c(N)ncnc2n1CCCCC           c1
 3  COCCNC(=O)c1ccc(-c2cc(C(=O)NC3CC3)cc(F)c2C)cc1           c1
 4  O=c1cc(N2CCOCC2)nc2n(Cc3cccc4ccccc34)ccn12           c1
 5  [2H]C([2H])(c1cccc(C(F)(F)F)c1C)n1ccn2c(=O)nc(N3CCOCC3)cc12           c3
 6  NS(=O)(=O)c1cccc(-c2ccc3nccc(-c4cccc(S(N)(=O)=O)c4)c3c2)c1           c1
 7  COc1cc(Nc2nccc(N3CCC(NC(=O)c4cccc(NC(C)=O)c4)C3)n2)cc(OC)c1OC (stereo not shown)           c3
 8  O=C(NCCNc1ccnc(Nc2ccc(F)cc2)n1)c1cc2ccccc2s1           c3
 9  O=c1cc(N2CCOCC2)nc2n(Cc3cccc(C(F)(F)F)c3)ccn12           c1
10  Cn1cc(-c2ccc3c(c2)CCN3C(=O)Cc2ccccc2Cl)c2c(N)ncnc21           c3
11  Cc1c(Cn2c(C)nn3c(=O)cc(N4CCOC(C)C4)nc23)cccc1C(F)(F)F (stereo not shown)           c2
12  NS(=O)(=O)c1cccc(-c2ccc3ncc(N4CCOCC4)nc3c2)c1           c3
13  O=C(NCCCN1CCOCC1)c1cccc(Nc2nccc(Nc3ccc(Oc4ccccc4)cc3)n2)c1           c3
14  O=C(c1ccc(-c2cc(-c3c[nH]nc3-c3ccccn3)ccn2)cc1)N1CCOCC1           c1
15  COc1ccc(Nc2nccc(N3CCC(NC(=O)Nc4cc(C)ccc4C)C3)n2)cc1 (stereo not shown)           c2
16                        CCn1cnc2c(N)ncnc21           c2
17  Nc1nc(-c2ccc3c(N)n[nH]c3c2)cc(N2CCCC2)n1           c3

These data points were gathered from paper PMC5540273.
